Known pIC50 of a selection of compounds
# tested target: HLA-DRB1*11:01 (Homo sapiens, UniProt P01903+P01911, A100R/A169T/A87E/I96F/K41T/L162R/M171V/P40S/Q125H/Q178H/Q39Y/Q99D/R42S/S66Y/T262R/V115G/W38E)
# Sequence (P01903 26-254 limits assumed, other chains not shown): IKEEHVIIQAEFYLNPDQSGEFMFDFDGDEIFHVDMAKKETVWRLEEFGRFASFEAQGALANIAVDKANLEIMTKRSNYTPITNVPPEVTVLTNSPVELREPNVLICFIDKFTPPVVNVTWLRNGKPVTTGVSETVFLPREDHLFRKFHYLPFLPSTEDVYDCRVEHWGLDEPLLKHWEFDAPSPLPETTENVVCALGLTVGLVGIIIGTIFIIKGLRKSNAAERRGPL
# test: biochemical
pIC50: −log10 of the molar value. Where a SMILES comes first, the peptide text is derived from it.

compound: CC(C)C[C@H](NC(=O)[C@H](Cc1ccc(O)cc1)NC(=O)[C@H](Cc1ccc(O)cc1)NC(=O)[C@H](Cc1ccccc1)NC(=O)[C@H](Cc1ccc(O)cc1)NC(=O)[C@H](Cc1c[nH]c2ccccc12)NC(=O)[C@H](CCCNC(=N)N)NC(=O)[C@@H]1CCCN1)C(=O)NCC(=O)N[C@H](C(=O)NCC(=O)N1CCC[C@H]1C(=O)N[C@@H](CCC(=O)O)C(=O)N[C@@H](C)C(=O)NCC(=O)O)[C@@H](C)O [Ncl_22] (H-PRWYFYYLGTGPEAG-OH)
pIC50: 5.47

compound: CC[C@H](C)[C@H](NC(=O)[C@H](CCCNC(=N)N)NC(=O)[C@H](CCCNC(=N)N)NC(=O)[C@@H](NC(=O)[C@H](C)NC(=O)[C@H](CCCNC(=N)N)NC(=O)[C@H](CCCNC(=N)N)NC(=O)[C@H](Cc1ccc(O)cc1)NC(=O)[C@@H](N)Cc1ccc(O)cc1)[C@@H](C)O)C(=O)N[C@@H](CCCNC(=N)N)C(=O)NCC(=O)NCC(=O)N[C@@H](CC(=O)O)C(=O)NCC(=O)N[C@@H](CCCCN)C(=O)O [Ncl_P18] (H-YYRRATRRIRGGDGK-OH)
pIC50: 7.15

compound: CC[C@H](C)[C@H](NC(=O)[C@H](CCC(N)=O)NC(=O)[C@H](CC(=O)O)NC(=O)[C@@H](N)CC(=O)O)C(=O)NCC(=O)N[C@@H](Cc1ccc(O)cc1)C(=O)N[C@@H](Cc1ccc(O)cc1)C(=O)N[C@@H](CCCNC(=N)N)C(=O)N[C@@H](CCCNC(=N)N)C(=O)N[C@@H](C)C(=O)N[C@H](C(=O)N[C@@H](CCCNC(=N)N)C(=O)N[C@@H](CCCNC(=N)N)C(=O)N[C@H](C(=O)N[C@@H](CCCNC(=N)N)C(=O)O)[C@@H](C)CC)[C@@H](C)O [Ncl_P17] (H-DDQIGYYRRATRRIR-OH)
pIC50: 7.70

compound: CC[C@H](C)[C@H](NC(=O)[C@H](CCC(=O)O)NC(=O)[C@@H](N)CCCCN)C(=O)N[C@H](C(=O)N[C@H](C(=O)N[C@@H](C)C(=O)N[C@H](C(=O)N[C@@H](CO)C(=O)N[C@@H](CCCNC(=N)N)C(=O)N[C@H](C(=O)N[C@@H](CC(C)C)C(=O)N[C@@H](CO)C(=O)N[C@@H](Cc1ccc(O)cc1)C(=O)N[C@@H](Cc1ccc(O)cc1)C(=O)N[C@@H](CCCCN)C(=O)O)[C@@H](C)O)[C@@H](C)O)C(C)C)[C@@H](C)O [Mem_34] (H-KEITVATSRTLSYYK-OH)
pIC50: 7.85

compound: CC[C@H](C)[C@H](NC(=O)[C@H](CCCNC(=N)N)NC(=O)[C@H](CC(C)C)NC(=O)[C@H](Cc1c[nH]cn1)NC(=O)CNC(=O)[C@@H](N)CCCNC(=N)N)C(=O)N[C@@H](C)C(=O)NCC(=O)N[C@@H](Cc1c[nH]cn1)C(=O)N[C@@H](Cc1c[nH]cn1)C(=O)N[C@@H](CC(C)C)C(=O)NCC(=O)N[C@@H](CCCNC(=N)N)C(=O)N[C@@H](CS)C(=O)N[C@@H](CC(=O)O)C(=O)O [Mem_30] (H-RGHLRIAGHHLGRCD-OH)
pIC50: 7.47

compound: CC[C@H](C)[C@H](NC(=O)CNC(=O)[C@H](CC(=O)O)NC(=O)[C@H](CCCCN)NC(=O)[C@@H](N)CC(N)=O)C(=O)N[C@H](C(=O)N[C@@H](Cc1c[nH]c2ccccc12)C(=O)N[C@H](C(=O)N[C@@H](C)C(=O)N[C@H](C(=O)N[C@@H](CCC(=O)O)C(=O)NCC(=O)N[C@@H](C)C(=O)N[C@@H](CC(C)C)C(=O)N[C@@H](CC(N)=O)C(=O)O)[C@@H](C)O)C(C)C)[C@@H](C)CC [Ncl_26] (H-NKDGIIWVATEGALN-OH)
pIC50: 5.04

These data points were gathered from paper PMC8445433.
